# System: DLD-1
# Test method notes: NCI tumour cell line growth inhibition, 48 h
Activity calls are given as the source filed them. No stated cut-off is given here; in the data, active = GI50 up to about 1.1 µM and inactive = higher. Non-standard residues stand in square brackets, D forms with d. Residues, ends and D or L forms follow the SMILES beside them. ξ: configuration not given here. Pen = CC(C)(S)[C@H](N)C(=O)O; ξL = CC(C)CC(N)C(=O)O
Test readout: GI50

CSCC[C@H](NC(=O)C(CC(C)C)NC(=O)[C@H](Cc1c[nH]cn1)NC(=O)CNC(=O)[C@@H](NC(=O)[C@@H](C)NC(=O)[C@H](Cc1c[nH]c2ccccc12)NC(=O)[C@H](CCC(N)=O)NC(=O)[C@@H](N)CC(N)=O)C(C)(C)SC)C(N)=O (stereo partly drawn) (H-NQW[dA][Pen](Me)GH[ξL]M-NH2) :: > 100 µM (inactive)

The compound identified as C=CCC1(C(=O)OC(C)(C)C)C(OC)=C(C(=O)OC(C)(C)C)C2C1C(C(=O)OC(C)(C)C)=C(OC)C2(CC=C)C(=O)OC(C)(C)C (stereo not drawn) registered its GI50 at > 100 µM (inactive)

Sure, the documented GI50 for CC(C)C1(O)C(c2ccccc2)=C(c2ccccc2)C(c2ccccc2)=C1c1ccccc1 is 5.87 µM (inactive)

---

# Test system: NCI-H226
# Test method notes: NCI tumour cell line growth inhibition, 48 h
Active and inactive are the calls of the source. No stated cut-off is given here; in the data, active = GI50 up to about 1.1 µM and inactive = higher.
A correct response names exactly one class from yes (1) for active, no (0) for inactive

// below: answered molecules
Cc1ccc(C2=Nc3cc(C)c(Cl)cc3S(=O)(=O)NN2)cc1 :: no (0)
C=CCn1c(-c2ccc(Cl)cc2Cl)cs/c1=N\c1c(C)n(C)n(-c2ccccc2)c1=O :: no (0)
O=[N+]([O-])c1cccc2nc3ccccc3c(NCCCCNc3c4ccccc4nc4cccc([N+](=O)[O-])c34)c12 :: yes (1)

Exam item: Outcome logged for CC(C)=CC(=O)C1c2cccc(O)c2C(=O)c2c(O)cc(C)cc21 (centres undefined) in this assay:
Marked response: no (0)

---

Measured GI50, listed per entry for reference.
# Tested on: SNB-75
# Test method notes: NCI tumour cell line growth inhibition, 48 h
The source made the active and inactive calls. Rule as the data show it: active = GI50 up to about 1.1 µM and inactive = higher.

Nc1ncnc2c1nc(Cl)n2C1OC2COP(=O)(O)OC2C1O (stereo not given) :: 11.3 µM (inactive)

// GI50 value for CC(=C(c1ccccc1)c1ccccc1)N1C(=O)CC(=O)N1C : 67.6 µM (inactive)

Entry CCN(CC)CCC1(C(=O)OC)SCCc2ccc(C)cc21 (stereo not given) , GI50 reported as 63.2 µM (inactive)

Lookup result for COC(=O)C(Cc1ccccc1)/N=C/c1c(O)c(O)c(C(C)C)c2cc(C)c(-c3c(C)cc4c(C(C)C)c(O)c(O)c(/C=N/C(Cc5ccccc5)C(=O)OC)c4c3O)c(O)c12 (stereo not given) ; measured GI50: 67.9 µM (inactive)

Please fill in: GI50 reported for N#CC(C(=O)/C(=N/N)C(C#N)c1ccc(Cl)cc1)c1ccc(Cl)cc1 (stereo not given) = > 100 µM (inactive)

---

Each item that follows carries a reported GI50.
# Tested on: LOX IMVI
# Test method notes: NCI tumour cell line growth inhibition, 48 h
The source made the active and inactive calls. No stated cut-off is given here; in the data, active = GI50 up to about 1.1 µM and inactive = higher.

CCN(c1cccc(NC(=S)Nc2ccccc2N(CC)c2cc(-c3ccccc3)no2)c1)c1cc(-c2ccccc2)no1 :: > 100 µM (inactive)
C=C(CS(=O)(=O)c1ccccc1)[P+](c1ccccc1)(c1ccccc1)c1ccccc1 :: 13.5 µM (inactive)
CC(=O)Oc1cccc2c1C(=O)C(Br)(Br)CCC2 :: 2.17 µM (inactive)

Form field GI50 for item N#Cc1ccc(Oc2ccccc2)cc1C#N on LOX IMVI: 20.7 µM (inactive)

# value of GI50, LOX IMVI, item CC(C)C/C=C/C1=NN(c2cccc(S(=O)(=O)O)c2)C2(C1)SCC(=O)N2c1nc2ccccc2s1 (stereo not given) = 26.8 µM (inactive)

Known value: LOX IMVI GI50 of the compound CN(C)CCn1c(CO)nc2c1c(=O)n(C)c(=O)n2C equals > 100 µM (inactive)

With LOX IMVI as the test system, Cc1cc2c(c(C(N)=O)c1C)-c1ccccc1C2=O showed GI50 of > 100 µM (inactive)

Form field GI50 for item COC(=O)C(/C(=N/NC(N)=S)C(=O)Nc1ccccc1[N+](=O)[O-])c1cnc2ccccc2n1 (stereo not given) on LOX IMVI: > 100 µM (inactive)

The recorded GI50 with LOX IMVI for Clc1ccccc1C1SCc2nc3ccccc3n21 (stereo not given) was 26.4 µM (inactive)

Lab note: compound Cn1nc(-c2cccc(-c3nn(C)/c(=N\CCO)s3)n2)s/c1=N/CCO tested on LOX IMVI; recorded GI50 was > 100 µM (inactive)

Origin of values: ChEMBL document CHEMBL1201862
